The measured values listed here are drawn from patent US12194046B2.

measurement_description: clinical
test_parameters: both, human, in vivo, po, 250 mg
Reported half-life values for the following compounds.
# value in h; strip the unit string

[
  {
    "compound": "Cn1c(=O)c2c(ncn2C)n(C)c1=O [caffeine, reference compound]",
    "half-life (h)": 4.25
  }
]

Problem: # input compound: [2H]C([2H])([2H])n1c(=O)c2c(ncn2C([2H])([2H])[2H])n(C([2H])([2H])[2H])c1=O ; wanted: its half-life
Result: 25.6

###

measurement_description: clinical
test_parameters: both, human, in vivo, po, 52.3 mg
observed_property: Cmax (µM)
# value in µM; strip the unit string

[
  {
    "molecule": "[2H]C([2H])([2H])n1c(=O)c2c(ncn2C([2H])([2H])[2H])n(C([2H])([2H])[2H])c1=O [d9-caffeine, 1,3,7-tri-trideuteromethylxanthine]",
    "Cmax / µM": 6.62
  }
]

Next item in the queue.
Problem: # input molecule: Cn1c(=O)c2c(ncn2C)n(C)c1=O [caffeine, reference compound] ; wanted: its Cmax
Result: 5.32
